Target or test system: human 20S proteasome PGPH-L activity
Construct: purchased Boston Biochem
Experiment: 20S proteasome PGPH-L activity inhibition assay (Z-Leu-Leu-Glu-AMC)
Format: biochemical
Reported conditions: read-out: IC50 best-fit value, PGPH-L activity (Table S1); nonlinear fit of dose-response plot
Observed property: pIC50
Give bare numbers, as −log10 of the molar value.

C[n+]1cccc(-c2c3nc(c(-c4ccc[n+](C)c4)c4ccc([nH]4)c(-c4ccc[n+](C)c4)c4nc(c(-c5ccc[n+](C)c5)c5ccc2[nH]5)C=C4)C=C3)c1 [meta-H2T4, meso-tetra(3-N-metil-pyridyl) porphyrin] | 6.68

Let us examine a further case.
Q) Quick one: pIC50 for C[n+]1ccc(-c2c3nc(c(-c4cc[n+](C)cc4)c4ccc([nH]4)c(-c4cc[n+](C)cc4)c4nc(c(-c5cc[n+](C)cc5)c5ccc2[nH]5)C=C4)C=C3)cc1 [H2T4] ?
A) 6.52
